pIC50: −log10 of the molar value.
For reference, pIC50 measured on HDAC11 (Homo sapiens (Human), UniProt Q96DB2):

MOLECULE	pIC50
O=C(NO)c1cccc(Nc2nc3cc(Cl)c(Cl)cc3o2)c1 [HDTK010]	8.30 to 9.00
O=C(NO)c1cccc2c1C[C@]1(CCN(Cc3ccc(Cl)c(C(F)(F)F)c3)C1=O)C2 [HDTK054]	7.30 to 8.00

---

Molecular target: HDAC7 (Homo sapiens (Human), UniProt Q8WUI4)
Sequence (Q8WUI4 whole entry): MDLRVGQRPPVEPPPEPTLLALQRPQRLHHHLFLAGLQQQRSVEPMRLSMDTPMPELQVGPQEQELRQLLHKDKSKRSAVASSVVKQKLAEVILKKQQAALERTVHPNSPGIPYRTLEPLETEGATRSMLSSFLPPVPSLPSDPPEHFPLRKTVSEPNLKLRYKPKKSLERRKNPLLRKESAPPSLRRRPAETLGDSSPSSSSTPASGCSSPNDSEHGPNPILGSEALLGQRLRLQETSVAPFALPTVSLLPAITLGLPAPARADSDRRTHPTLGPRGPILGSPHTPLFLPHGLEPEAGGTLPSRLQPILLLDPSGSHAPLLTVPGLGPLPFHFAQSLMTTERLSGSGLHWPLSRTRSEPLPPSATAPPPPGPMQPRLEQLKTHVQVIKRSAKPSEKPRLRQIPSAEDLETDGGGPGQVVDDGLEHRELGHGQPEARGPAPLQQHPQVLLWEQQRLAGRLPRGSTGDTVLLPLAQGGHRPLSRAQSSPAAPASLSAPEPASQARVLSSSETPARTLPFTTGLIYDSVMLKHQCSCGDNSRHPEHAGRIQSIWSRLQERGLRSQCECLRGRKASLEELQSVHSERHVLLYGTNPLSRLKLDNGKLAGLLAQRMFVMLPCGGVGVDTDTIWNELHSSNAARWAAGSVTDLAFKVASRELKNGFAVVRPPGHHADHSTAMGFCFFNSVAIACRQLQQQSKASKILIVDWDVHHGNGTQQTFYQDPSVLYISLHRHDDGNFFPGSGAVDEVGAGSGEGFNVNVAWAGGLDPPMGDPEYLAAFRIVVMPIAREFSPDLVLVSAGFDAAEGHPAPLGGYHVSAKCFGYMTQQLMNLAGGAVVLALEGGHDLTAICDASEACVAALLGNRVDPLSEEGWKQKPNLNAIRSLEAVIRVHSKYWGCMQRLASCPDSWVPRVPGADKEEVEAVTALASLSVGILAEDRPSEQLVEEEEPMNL
pIC50: −log10 of the molar value.

COMPOUND	pIC50
O=C(NO)c1cccc(Nc2nc3cc(Cl)c(Cl)cc3o2)c1 [HDTK010]	5.00 to 5.30
